Listing of entries alongside the reported GI50.
System: HS 578T breast
Experiment: NCI tumour cell line growth inhibition, 48 h

Examples with their reported GI50 follow.
{"compound": "c1cncc(-c2nc3ccccc3s2)c1", "GI50": "50.7 µM"}
{"compound": "O=C(Nc1ccc2[nH]c(C(=O)N3CC(CCl)c4c3cc([N+](=O)[O-])c3ccccc43)cc2c1)c1cc2ccccc2o1 (stereo not given)", "GI50": "> 1100 µM"}
{"compound": "COc1ccc(SC2c3ccc(C)cc3Oc3nc(N)c(C#N)c(N)c32)cc1 (stereo not given)", "GI50": "2.27 µM"}
{"compound": "CN1C(=O)C(=Cc2cn(Cc3ccccc3)c3ccccc23)C(=O)N(C)C1=O", "GI50": "17.8 µM"}

Next up:
Measured GI50, `COc1ccc(-c2cn(-c3cccc(C(=O)/C=C/c4ccc(O)c(OC)c4)c3)c(=O)[nH]2)cc1` : 3.24 µM

###

System: DMS 114 small cell lung
Assay: NCI tumour cell line growth inhibition, 48 h
Listing of entries alongside the reported TGI.

Examples with their reported TGI follow.
{"compound": "O=c1nc(NC(c2ccccc2)(c2ccccc2)c2ccccc2)ccn1CCO", "TGI": "> 100 µM"}
{"compound": "OC(C1CO1)C(O)C1CO1 (stereo unspecified)", "TGI": "150 µM"}

Field TGI (system: DMS 114 small cell lung) for entry Clc1cccc(N2CCN(CCN3CCc4c([nH]c5ccccc45)C3c3cccnc3)CC2)c1 (stereo unspecified) = > 100 µM

Field TGI (system: DMS 114 small cell lung) for entry `O=[P+](O)c1cc2ccccc2c2ccccc12` = > 100 µM

Field TGI (system: DMS 114 small cell lung) for entry `Cc1ccc(C(=O)N2CCN(C(=O)c3ccc(C)cc3)c3ccccc32)cc1` = 18 µM

Field TGI (system: DMS 114 small cell lung) for entry `COc1ccc(/C(Cl)=C(\C=O)c2ccccc2)cc1OC` = > 100 µM

Field TGI (system: DMS 114 small cell lung) for entry COc1cc([C@H]2c3cc4c(cc3[C@H](NCc3ccc([N+](=O)[O-])cc3)C3COC(=O)[C@H]32)OCO4)cc(OC)c1O (stereo partly specified) = > 25.3 µM

Field TGI (system: DMS 114 small cell lung) for entry `CCOC(=O)c1cc2c(cn1)[nH]c1cccc(N)c12` = > 100 µM

###

System: CCRF-CEM leukemia
Experiment: NCI tumour cell line growth inhibition, 48 h
Listing of entries alongside the reported log10 of TGI.
Hi team, quick reminder: these entries are log10 of TGI (µM).

Examples with their reported log10 of TGI follow.
{"molecule": "CCN(CC)CCCC(C)Nc1c2ccc(Cl)cc2nc2cc(OC)c(OC)cc12 (centres undefined)", "test_value": 1.01}
{"molecule": "CCn1c2ccc(C(=O)CCCN(C)C)cc2c2cc(C(=O)CCCN(C)C)ccc21", "test_value": 1.00}
{"molecule": "C[C@@H](NC(=O)[C@@H](CC(=O)N1CCC(N2CCCCC2)CC1)N1C(=O)[C@@H](N2C(=O)OC[C@@H]2c2ccccc2)[C@H]1/C=C/c1cccc(Cl)c1)c1ccccc1", "test_value": 0.90}
{"molecule": "O=C1c2cc(-c3ccccc3)ccc2-c2c1c1ccc([N+](=O)[O-])cc1c(=O)n2CCCBr", "test_value": -0.22}

Field log10 of TGI (system: CCRF-CEM leukemia) for entry COC12OC3CC4(C)C(=CC3OC(OC(C)C1O)C2O)CCC1C4CCC2(C)C(c3ccc(=O)oc3)CCC12O (centres undefined) = -2.68

###

Tested on: SF-539 CNS
Test: NCI tumour cell line growth inhibition, 48 h
Listing of entries alongside the reported TGI.

Examples with their reported TGI follow.
{"compound": "CC1(C)N=C(N)N=C(N)N1c1ccc(CCc2ccc(Cl)cc2S(=O)(=O)F)c(Cl)c1", "measured_parameter": "TGI", "test_value": "26.1 µM"}
{"compound": "Cn1cc(-c2nc(-c3c[nH]c4ccncc34)cs2)c2cc(F)ccc21", "measured_parameter": "TGI", "test_value": "3.1 µM"}
{"compound": "COc1c(-c2cccs2)oc2c(CC(=O)O)cccc2c1=O", "measured_parameter": "TGI", "test_value": "> 100 µM"}
{"compound": "COC1=C2C[C@H](O)C(C)C[C@@]2(OC)OC1=O (stereo partly specified)", "measured_parameter": "TGI", "test_value": "> 100 µM"}
{"compound": "O=C(Cc1ccccc1)N=Nc1c(O)[nH]c2ccccc12", "measured_parameter": "TGI", "test_value": "> 100 µM"}

Measured TGI, `COc1cc2c(cc1OC(=O)c1cc3ccccc3[nH]1)N=C[C@@H]1CCCN1C2=O` : 1.17 µM

###

Tested on: RXF 393 renal
Assay: NCI tumour cell line growth inhibition, 48 h
measured_parameter: TGI

Examples with their reported TGI follow.
{"molecule": "COc1ccc2oc(=Nc3ccc(F)cc3)c(C(N)=O)cc2c1", "system_name": "RXF 393 renal", "TGI": "37.3 µM"}
{"molecule": "NNC(=O)CCC(NS(=O)(=O)c1ccc(Cl)cc1)C(=O)NN (centres undefined)", "system_name": "RXF 393 renal", "TGI": "> 100 µM"}
{"molecule": "O=C(NC12CC3CC(CC(C3)C1)C2)C(=O)c1c[nH]c2ccc([N+](=O)[O-])cc12", "system_name": "RXF 393 renal", "TGI": "> 94.6 µM"}

Measured TGI, O=C(NCCCCCCNC(=O)n1cc(F)c(=O)[nH]c1=O)NCCCOCCOCCOCCOCCOCCOCCOCCOCCOCCOCCOCCOCCOCCOCCOCCOCCOCCOCCOCCOCCOCCCNC(=O)C(O)C(O)C(OC1OC(CO)C(O)C(O)C1O)C(O)CO (centres undefined) : > 100 µM

###

Test system: UO-31 renal
Experiment: NCI tumour cell line growth inhibition, 48 h
Listing of entries alongside the reported TGI.

{"compound": "CC(C)(c1ccc(Oc2ccc(C#N)c(C#N)c2)cc1)c1ccc(Oc2ccc(C#N)c(C#N)c2)cc1", "TGI": "> 100 µM"}

Measured TGI, O=C(Nc1ccc2[nH]c(C(=O)N3CC(CCl)c4c3cc([N+](=O)[O-])c3ccccc43)cc2c1)c1cc2ccccc2o1 (stereo not drawn) : > 1100 µM

Measured TGI, `COc1cccc2c1-c1c(OC)cccc1SS2` : > 100 µM

Measured TGI, COc1cc(C=O)c(-c2cc3c(cc2C2(C)OCCS2)OCO3)c(OC)c1OC (stereo not drawn) : 64.2 µM

Measured TGI, CC(O)c1cc2c(s1)C(=O)c1scc(C(C)O)c1C2=O (stereo not drawn) : 1.41 µM

Measured TGI, NC(=O)CCC(NC(=O)c1cccc2c(=O)c3ccccc3[nH]c12)C(=O)O (stereo not drawn) : > 100 µM

###

Tested on: UACC-257 melanoma
Experiment: NCI tumour cell line growth inhibition, 48 h
Listing of entries alongside the reported TGI.

Examples with their reported TGI follow.
{"compound": "N/C(=N\\N=C\\c1cc2c(cc1Cl)OCO2)NO", "TGI": "> 100 µM"}
{"compound": "CCCCCC(O)(CCCCC)CCCCCCCCC1=C(O)c2ccccc2C(=O)C1=O", "TGI": "> 66.5 µM"}
{"compound": "COc1cc2c(cc1OC)C(CC1(O)CCCCC1)N(S(=O)(=O)c1ccc(C)cc1)CC2 (configuration not stated)", "TGI": "> 10 µM"}

Next up:
Measured TGI, `CCCCOC(=O)c1ccc(NC(=O)CCl)cc1` : 8.66 µM

###

Listing of entries alongside the reported TGI.
Tested on: M14 melanoma
Assay: NCI tumour cell line growth inhibition, 48 h

Examples with their reported TGI follow.
{"molecule": "CCOc1cc2c(cc1O)CC[C@@H]1[C@@H]2CC[C@]2(C)C(OS(=O)OC3CC[C@@H]4[C@H]5CCc6cc(O)c(OCC)cc6[C@@H]5CC[C@@]34C)CC[C@@H]12 (stereo not given in full)", "test_value": "2.58 µM"}
{"molecule": "CCOC(=O)C1=CC(C)(C(=O)OCC)Nc2c(nc(SC)n(C)c2=O)N1 (stereo not given)", "test_value": "> 10 µM"}
{"molecule": "CC(=O)C1COC(O)C1C (stereo not given)", "test_value": "61.1 µM"}
{"molecule": "Cc1cc(C)c2c(=N)c3ccccc3n(CCCCCCn3c4ccccc4c(=N)c4c(C)cc(C)nc43)c2n1", "test_value": "3.07 µM"}

Next up:
Measured TGI, `COc1ccc(C2=Nc3c/c(=C\c4c(O)[nH]c5ccc(Cl)cc45)ccc3=N2)cc1` : 3.67 µM

###

Tested on: SN12C renal
Assay: NCI tumour cell line growth inhibition, 48 h
measured_parameter: GI50

Examples with their reported GI50 follow.
{"compound": "O=C(Nc1ccc2[nH]c(C(=O)N3CC(CCl)c4c3cc([N+](=O)[O-])c3ccccc43)cc2c1)c1cc2ccccc2o1 (stereo unspecified)", "system_name": "SN12C renal", "GI50": "> 1100 µM"}
{"compound": "Cc1cc([N+](=O)[O-])ccc1NS(=O)(=O)c1cc(Cl)ccc1Cl", "system_name": "SN12C renal", "GI50": "2.87 µM"}

Measured GI50, `O=C1NC(=O)C(c2ccc(Cl)cc2)=C1Nc1ccc(Cl)c(C(=O)O)c1` : > 25 µM

Measured GI50, `COc1ccc2nc3cc([N+](=O)[O-])ccc3c(NCCCN(CCO)CCO)c2c1` : 3.92 µM

Where do the numbers come from? From PubChem BioAssay (NCI).
